Quick record of pIC50 values for GST-tagged SIK2 (Homo sapiens (Human)).
pIC50: −log10 of the molar value.
measured_parameter: pIC50

Illustrative cases are given below, each with its answer.
{"columns": ["molecule", "measurement_target", "pIC50"],
 "data": [
  ["CCCn1cc(-c2cc(C#N)c3c(-c4cc(OC)c5c(c4)[C@@H](C)CNC5=O)n(C)nc3c2)cn1 (single isomer, unassigned)", "GST-tagged SIK2 (Homo sapiens (Human))", 8.51],
  ["COc1cc(-c2c3c(OCCCCO)cc(-c4cnn(C)c4)cc3nn2C)cc(OC(F)F)c1C(=O)N1CC(O)(C(F)(F)F)C1", "GST-tagged SIK2 (Homo sapiens (Human))", 8.08],
  ["COc1cc(-c2c3c(C#N)cc(-c4cnn(CC5CCO5)c4)cc3nn2C)cc(OC(F)F)c1C(=O)NCC1(F)CC1 (stereo not drawn)", "GST-tagged SIK2 (Homo sapiens (Human))", 8.06]
]}

1. COc1cc(-c2c3c(C#N)cc(-c4cnn(CC[C@@H](C)O)c4)cc3nn2C)cc(OC(F)F)c1C(=O)NCC1(F)CC1
2. COc1cc(-c2c3c(C#N)cc(-c4cnn(CC(C)C)c4)cc3nn2C)cc2c1C(=O)NC[C@@H]2C (single isomer, unassigned)
Choose between 1 and 2 : whose measured pIC50 value is numerically larger? Please indicate the selected item by its label.
2

Data provenance is patent US20260062387A1.
